>  <Chemical String>
CNC(=O)[C@H](Cc1ccc(Cl)c(Cl)c1)NC(=O)[C@](O)(CC(C)C)[C@H](O)C(=O)NO

>  <melting point>
194.1 °C

$$$$
>  <Chemical String>
CNC(=O)[C@H](Cc1ccc(OC)cc1)NC(=O)[C@](O)(CC(C)C)[C@H](O)C(=O)NO

>  <melting point>
199 °C (dec.)

$$$$
>  <Chemical String>
CNC(=O)[C@H](Cc1ccccc1)NC(=O)[C@](O)(CC(C)C)[C@H](C)C(=O)NO

>  <melting point>
174.2 °C (dec.)

$$$$
>  <Chemical String>
CNC(=O)[C@H](Cc1ccc(Br)cc1)NC(=O)[C@](O)(CC(C)C)[C@H](C)C(=O)NO

>  <melting point>
214 °C (dec.)

$$$$
>  <Chemical String>
CNC(=O)[C@H](Cc1ccc(Cl)c(Cl)c1)NC(=O)[C@](O)(CC(C)C)[C@H](C)C(=O)NO

>  <melting point>
216 °C (dec.)

$$$$
>  <Chemical String>
CNC(=O)[C@H](Cc1ccc(F)cc1)NC(=O)[C@](O)(CC(C)C)[C@H](C)C(=O)NO

>  <melting point>
186.5 °C

$$$$

====

Measured IC50 accompanies every entry in the list below.
Tested on: release of TNF from the peritoneal macrophages of mice stimulated by LPS
Assay: Inhibition of the production of TNF in vitro
Assay type: cell-based
Details: Peritoneal macrophage; mouse peritoneal macrophages, LPS 100 ng/ml; read-out: C150 (μM) TNF

>  <Compound>
CSCCNC(=O)[C@H](Cc1ccc(Cl)c(Cl)c1)NC(=O)[C@](O)(CC(C)C)[C@H](C)C(=O)NO [Example 21]

>  <Units Label>
µM

>  <Readout Qualifier>
=

>  <IC50>
0.4

$$$$
>  <Compound>
CSCCNC(=O)[C@H](Cc1ccc(I)cc1)NC(=O)[C@](O)(CC(C)C)[C@H](C)C(=O)NO [Example 15]

>  <Units Label>
µM

>  <Readout Qualifier>
=

>  <IC50>
4.5

$$$$
>  <Compound>
CNC(=O)[C@@H](NC(=O)[C@H](CC(C)C)[C@H](O)C(=O)NO)C(C)(C)C [reference compound]

>  <Units Label>
µM

>  <Readout Qualifier>
=

>  <IC50>
0.14

$$$$
>  <Compound>
CC(C)C[C@@](O)(C(=O)N[C@@H](Cc1ccc(Cl)c(Cl)c1)C(=O)NCCOCCO)[C@H](C)C(=O)NO [Example 19]

>  <Units Label>
µM

>  <Readout Qualifier>
=

>  <IC50>
0.5

$$$$
>  <Compound>
CNC(=O)[C@H](Cc1ccc(Br)cc1)NC(=O)[C@](O)(CC(C)C)[C@H](C)C(=O)NO [Example 11]

>  <Units Label>
µM

>  <Readout Qualifier>
=

>  <IC50>
0.61

$$$$
>  <Compound>
CSCCNC(=O)[C@H](Cc1ccc(Cl)cc1)NC(=O)[C@](O)(CC(C)C)[C@H](C)C(=O)NO [Example 13]

>  <Units Label>
µM

>  <Readout Qualifier>
=

>  <IC50>
0.15

$$$$
>  <Compound>
CNC(=O)[C@H](Cc1ccc(OC)cc1)NC(=O)[C@](O)(CC(C)C)C(C)N(O)C=O (mixture of isomers) [Example 38]

>  <Units Label>
µM

>  <Readout Qualifier>
=

>  <IC50>
3.2

$$$$
>  <Compound>
C[C@H](C(=O)NO)[C@@](O)(CCCc1ccccc1)C(=O)N[C@@H](CC1CCCCC1)C(=O)NCCc1ccccc1 [Example 32]

>  <Units Label>
µM

>  <Readout Qualifier>
>

>  <IC50>
1

$$$$
>  <Compound>
CC(C)C[C@@](O)(C(=O)NC(Cc1ccc(Cl)cc1)C(=O)NCCN1CCOCC1)C(C)C(=O)NO (stereo partly drawn) [Example 12b]

>  <Units Label>
µM

>  <Readout Qualifier>
=

>  <IC50>
1.6

$$$$
>  <Compound>
CNC(=O)[C@H](Cc1ccc(OC)cc1)NC(=O)[C@](O)(C(C)C)[C@H](C)C(=O)NO [Example 7]

>  <Units Label>
µM

>  <Readout Qualifier>
=

>  <IC50>
2

$$$$
>  <Compound>
CNC(=O)[C@H](Cc1ccc(F)cc1)NC(=O)[C@](O)(CC(C)C)[C@H](C)C(=O)NO [Example 16]

>  <Units Label>
µM

>  <Readout Qualifier>
=

>  <IC50>
0.6

$$$$
>  <Compound>
CNC(=O)[C@H](Cc1ccc(OC)cc1)NC(=O)[C@](O)(CC(C)C)[C@H](C)S [Example 36]

>  <Units Label>
µM

>  <Readout Qualifier>
=

>  <IC50>
3

$$$$
>  <Compound>
CNC(=O)[C@H](Cc1ccc(N)cc1)NC(=O)[C@](O)(CC(C)C)[C@H](C)C(=O)NO [Example 9]

>  <Units Label>
µM

>  <Readout Qualifier>
=

>  <IC50>
2.2

$$$$
>  <Compound>
CNC(=O)[C@H](Cc1ccc(Cl)c(Cl)c1)NC(=O)[C@](O)(CC(C)C)[C@H](O)C(=O)NO [Example 30]

>  <Units Label>
µM

>  <Readout Qualifier>
=

>  <IC50>
3.6

$$$$
>  <Compound>
CNC(=O)[C@H](Cc1ccc(OC)cc1)NC(=O)[C@](O)(CC(C)C)[C@H](C)C(=O)NO [Example 1]

>  <Units Label>
µM

>  <Readout Qualifier>
=

>  <IC50>
1

$$$$

====

Experiment: Determination of bioavailability (blood levels, ex-vivo bioassay)
Type: in vivo
Conditions: mouse, blood, ip, 50 mg/kg, mice, 50 mg/kg i.p., 20′; read-out: blood level, I.p. method, 20′

>  <Compound>
CNC(=O)[C@@H](NC(=O)[C@H](CC(C)C)[C@H](O)C(=O)NO)C(C)C

>  <Readout Qualifier>
=

>  <concentration at 20 min (ng/mL)>
9000

$$$$
>  <Compound>
CC(C)C[C@@](O)(C(=O)N[C@@H](Cc1ccc(Cl)c(Cl)c1)C(=O)NCCOCCO)[C@H](C)C(=O)NO [drawing 120]

>  <Readout Qualifier>
=

>  <concentration at 20 min (ng/mL)>
7800

$$$$
>  <Compound>
CNC(=O)[C@@H](NC(=O)C(O)(CC(C)C)[C@H](C)C(=O)NO)C(C)(C)C (stereo partly drawn)

>  <Readout Qualifier>
=

>  <concentration at 20 min (ng/mL)>
22000

$$$$
>  <Compound>
CNC(=O)[C@H](Cc1ccc(OC)cc1)NC(=O)[C@](O)(CC(C)C)[C@H](C)C(=O)NO [drawing 114]

>  <Readout Qualifier>
=

>  <concentration at 20 min (ng/mL)>
8700

$$$$
>  <Compound>
CNC(=O)[C@H](Cc1ccc(OC)cc1)NC(=O)[C@H](CC(C)C)[C@H](C)C(=O)NO [drawing 113]

>  <Readout Qualifier>
<

>  <concentration at 20 min (ng/mL)>
100

$$$$
>  <Compound>
CNC(=O)[C@H](Cc1ccc(OC)cc1)NC(=O)C(O)(CC(C)C)[C@H](O)C(=O)NO (stereo partly drawn)

>  <Readout Qualifier>
=

>  <concentration at 20 min (ng/mL)>
0

$$$$

====

Tested on: release of TNF from the peritoneal macrophages of mice stimulated by LPS
Test: Inhibition of the production of TNF in vitro
Assay type: cell-based
Conditions: Peritoneal macrophage; mouse peritoneal macrophages, LPS 100 ng/ml; read-out: C150 (μM) TNF
Assign labels as follows, please: Satisfied for IC50 below 0.4 µM; Not satisfied for IC50 equal to or exceeding 0.4 µM.

>  <Compound>
CNC(=O)[C@H](Cc1cccc(Cl)c1)NC(=O)[C@](O)(CC(C)C)[C@H](C)C(=O)NO [Example 22]

>  <Class Label>
Satisfied

$$$$
>  <Compound>
CNC(=O)[C@H](Cc1ccc(Cl)c(Cl)c1)NC(=O)[C@@](O)(CS)CC(C)C [Example 37]

>  <Class Label>
Not satisfied

$$$$
>  <Compound>
COCCOCCNC(=O)[C@H](Cc1ccc(Cl)c(Cl)c1)NC(=O)[C@](O)(CC(C)C)[C@H](C)C(=O)NO [Example 23]

>  <Class Label>
Satisfied

$$$$
>  <Compound>
CNC(=O)[C@H](Cc1ccc(Cl)c(Cl)c1)NC(=O)[C@](O)(CCCc1ccccc1)[C@H](C)C(=O)NO [Example 33]

>  <Class Label>
Not satisfied

$$$$
>  <Compound>
CNC(=O)[C@H](Cc1ccc(Cl)cc1Cl)NC(=O)[C@](O)(CC(C)C)[C@H](C)C(=O)NO [Example 20]

>  <Class Label>
Not satisfied

$$$$
>  <Compound>
CNC(=O)[C@H](Cc1ccc(Cl)c(Cl)c1)NC(=O)[C@](O)(CC(C)C)[C@H](C)C(=O)NO [Example 18]

>  <Class Label>
Satisfied

$$$$
